- EXPERIMENT_DESCRIPTION: inhibitors of mutant huntingtin aggregation, primary screen, imaging, exon1htt(103Q)mCFP cells, high-content imaging (AID 483);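 note: compound exposure lasted 3 days before fixation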
- CONDITION_NOTES: exon1htt(103Q)mCFP cell line, aggregate imaging, at 2 µM
Active and inactive are the calls of the source.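 Rule for the calls: active = visual image review flags a hit and inhibition of aggregation exceeds 20%; inconclusive = visual hit but inhibition at or below 20%; inactive = no hit on visual image review.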
Outcome (select one): active, inactive

Known results for compounds:
COMPOUND: Cc1cc(O)c(C(C)C)cc1N=C1CSC(=O)N1
GROUP: inactive

COMPOUND: O=C(O)c1cc(=O)cc(C(=O)O)[nH]1
GROUP: inactive

COMPOUND: CN1CCN(C2=Nc3ccccc3Oc3ccc(Cl)cc32)CC1
GROUP: inactive

COMPOUND: C=CCn1cnc2c(c1=O)c1nc3ccccc3nc1n2-c1ccc(C)cc1
GROUP: inactive

COMPOUND: Clc1ccc(Cl)c(-c2ccc(/C=N/c3ncn[nH]3)o2)c1
GROUP: inactive

Give the logged outcome of this assay for the following compound: COc1ccc(CCn2c(=N)c(C#N)cc3c(=O)n4ccccc4nc32)cc1
inactive

Give the logged outcome of this assay for the following compound: OCCN(CCO)c1nc(N2CCCCC2)c2nc(N(CCO)CCO)nc(N3CCCCC3)c2n1
inactive

Give the logged outcome of this assay for the following compound: CCC(=O)N[C@@H]1CC(C(C)(C)NC(=O)CC)CC=C1C (stereo partly drawn)
inactive

Give the logged outcome of this assay for the following compound: Cc1ccc(S(=O)(=O)N2CCN(c3nc(C(C)C)c4c(c3C#N)CC(C)(C)OC4)CC2)cc1
inactive

Give the logged outcome of this assay for the following compound: CC(=O)Oc1cc(C(C)C)c(OCCN(C)C)cc1C
inactive

Give the logged outcome of this assay for the following compound: Cc1cccc(OCC(=O)N2CCC(N3CCCCCC3)CC2)c1
inactive

Reference source: PubChem BioAssay
